Tested on: Danio rerio Tg(wt1b:EGFP) embryo, pronephros
Experiment: fraction of imaged embryos annotated as normal kidney; higher = less nephrotoxic; extreme values may be limits of the assay
Conditions: 25 µM; exposure: 24-48 hpf
Where a name gives a salt, the structure may show the parent alone.
The label depends only on fraction of imaged embryos annotated as normal kidney: 1 (yes) if it is at least 0.8, 0 (no) if it is smaller.

Example entries and their recorded answers appear below.
{"compound": "COc1ccc(CN2CCN(C(c3ccc(F)cc3)c3ccc(F)cc3)CC2)c(OC)c1OC [Lomerizine hydrochloride]", "target": "Danio rerio Tg(wt1b:EGFP) embryo, pronephros", "class name": "0 (no)"}
{"compound": "CCCC(=O)Nc1ccc(OCC(O)CNC(C)C)c(C(C)=O)c1 (configuration not stated) [Acebutolol hydrochloride]", "target": "Danio rerio Tg(wt1b:EGFP) embryo, pronephros", "class name": "0 (no)"}
{"compound": "NC(=O)N/N=C/c1ccc([N+](=O)[O-])o1", "target": "Danio rerio Tg(wt1b:EGFP) embryo, pronephros", "class name": "1 (yes)"}

Q: Determine whether measured fraction of imaged embryos annotated as normal kidney meets or exceeds 0.8 for CN(C)C/C=C(/c1ccc(Br)cc1)c1cccnc1 [Zimelidine dihydrochloride monohydrate]
A: 0 (no)

Q: Determine whether measured fraction of imaged embryos annotated as normal kidney meets or exceeds 0.8 for CC(=O)O[C@]1(C(C)=O)CC[C@H]2[C@@H]3C=C(Cl)C4=CC(=O)[C@@H]5C[C@@H]5[C@]4(C)[C@H]3CC[C@@]21C [Cyproterone acetate]
A: 1 (yes)

Q: Determine whether measured fraction of imaged embryos annotated as normal kidney meets or exceeds 0.8 for CNCC(O)c1ccc(O)c(O)c1 (configuration not stated) [Racepinephrine hydrochloride]
A: 0 (no)

Q: Determine whether measured fraction of imaged embryos annotated as normal kidney meets or exceeds 0.8 for CC(=O)OCC(=O)[C@@]1(O)[C@H](C)C[C@H]2[C@@H]3CCC4=CC(=O)C=C[C@]4(C)[C@@]3(F)[C@@H](O)C[C@@]21C [Dexamethasone acetate]
A: 1 (yes)
